- target: CDC42BPA (human) (UniProt Q5VT25)
- Sequence (Q5VT25 whole entry, looked up): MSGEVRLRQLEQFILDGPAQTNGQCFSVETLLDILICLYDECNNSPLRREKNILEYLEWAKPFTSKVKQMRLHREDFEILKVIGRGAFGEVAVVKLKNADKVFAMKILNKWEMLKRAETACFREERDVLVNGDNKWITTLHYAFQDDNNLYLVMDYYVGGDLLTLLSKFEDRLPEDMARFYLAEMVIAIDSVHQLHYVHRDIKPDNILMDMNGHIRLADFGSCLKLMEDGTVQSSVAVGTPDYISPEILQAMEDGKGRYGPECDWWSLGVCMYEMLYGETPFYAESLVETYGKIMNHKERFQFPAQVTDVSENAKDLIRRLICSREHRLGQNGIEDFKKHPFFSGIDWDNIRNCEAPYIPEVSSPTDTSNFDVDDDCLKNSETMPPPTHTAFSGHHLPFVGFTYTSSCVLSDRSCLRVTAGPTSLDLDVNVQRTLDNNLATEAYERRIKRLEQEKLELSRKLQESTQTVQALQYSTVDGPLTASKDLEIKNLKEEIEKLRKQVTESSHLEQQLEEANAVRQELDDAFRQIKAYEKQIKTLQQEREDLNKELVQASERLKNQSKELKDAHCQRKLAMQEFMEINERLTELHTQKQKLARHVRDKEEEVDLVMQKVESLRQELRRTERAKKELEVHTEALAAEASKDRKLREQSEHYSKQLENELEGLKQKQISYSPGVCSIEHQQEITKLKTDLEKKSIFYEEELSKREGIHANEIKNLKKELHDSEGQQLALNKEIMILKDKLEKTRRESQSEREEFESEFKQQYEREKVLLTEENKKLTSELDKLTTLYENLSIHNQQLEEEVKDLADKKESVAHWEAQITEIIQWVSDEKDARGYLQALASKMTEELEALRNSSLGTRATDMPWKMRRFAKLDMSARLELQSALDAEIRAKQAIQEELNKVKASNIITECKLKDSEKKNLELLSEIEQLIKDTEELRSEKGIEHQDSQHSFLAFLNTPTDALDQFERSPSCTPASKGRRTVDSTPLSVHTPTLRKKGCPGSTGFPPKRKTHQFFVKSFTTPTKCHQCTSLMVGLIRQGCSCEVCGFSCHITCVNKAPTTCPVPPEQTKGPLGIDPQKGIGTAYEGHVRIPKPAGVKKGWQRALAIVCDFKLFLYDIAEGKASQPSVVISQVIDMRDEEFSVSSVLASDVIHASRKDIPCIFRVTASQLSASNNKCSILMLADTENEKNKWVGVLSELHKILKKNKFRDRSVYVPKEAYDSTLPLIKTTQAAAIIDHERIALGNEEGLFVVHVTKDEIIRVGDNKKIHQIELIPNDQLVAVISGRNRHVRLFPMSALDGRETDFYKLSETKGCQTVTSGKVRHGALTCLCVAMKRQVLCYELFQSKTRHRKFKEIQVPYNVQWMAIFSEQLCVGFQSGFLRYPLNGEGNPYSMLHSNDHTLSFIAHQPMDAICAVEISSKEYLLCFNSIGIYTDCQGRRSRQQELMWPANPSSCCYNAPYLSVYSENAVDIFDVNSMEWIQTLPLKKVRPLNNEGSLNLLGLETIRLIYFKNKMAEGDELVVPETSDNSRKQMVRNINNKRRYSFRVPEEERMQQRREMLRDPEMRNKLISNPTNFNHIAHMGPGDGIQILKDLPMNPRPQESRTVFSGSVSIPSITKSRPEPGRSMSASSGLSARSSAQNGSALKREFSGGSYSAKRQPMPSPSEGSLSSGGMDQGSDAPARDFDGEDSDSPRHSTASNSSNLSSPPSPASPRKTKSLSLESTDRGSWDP
- experiment-notes: radiometric filter-binding kinase assay, Kinase HotSpot
- condition: compound 0.5 µM; ATP 10 µM
reported-property: residual activity (%)

{"molecule": "O=C(Nc1cccc(Nc2cc(Nc3cccc(C(F)(F)F)c3)ncn2)c1)C1CC1", "result": 77.7}
{"molecule": "O=C(O)/C=C/c1cc(Br)c(Br)c(Br)c1Br", "result": 98.5}
{"molecule": "CCn1cnc2c(Nc3cccc(Cl)c3)nc(N[C@@H]3CCCC[C@@H]3N)nc21", "result": 93.4}
{"molecule": "CC(C)c1nn(-c2c(Cl)cccc2Cl)c2nc(Cc3ccc(OCCO)cc3)nc(O)c12", "result": 89.5}
{"molecule": "Cn1nc2c3c(cccc31)C(=O)c1ccccc1-2", "result": 106}
{"molecule": "Cn1sc(=O)n(Cc2ccccc2)c1=O", "result": 94}
{"molecule": "Nc1nnc2[nH]c3ccccc3nc1-2", "result": 95.4}
{"molecule": "O=C1Nc2ccccc2/C1=C1/Nc2ccccc2/C1=N\\OCCC(O)CO (stereo unspecified)", "result": 88.6}
{"molecule": "O=C1Nc2ccccc2/C1=C1\\Nc2ccccc2\\C1=N/O", "result": 93.7}
{"molecule": "CC(=O)O/N=C1\\C(=C2\\C(=O)Nc3cc(Br)ccc32)Nc2ccccc21", "result": 85.8}
{"molecule": "COc1cc2ncnc(N3CCN(C(=O)Nc4ccc(Oc5ccccc5)cc4)CC3)c2cc1OC", "result": 95.4}

###

- target: FGFR3 (human)
- experiment-notes: radiometric filter-binding kinase assay, Kinase HotSpot
- condition: compound 0.5 µM; ATP 10 µM

{"compound": "CN(C)C[C@H]1CCn2c(c(C3=C(c4cn(C)c5ccccc45)C(=O)NC3=O)c3ccccc32)C1", "target": "FGFR3 (human)", "residual activity / %": 96.3}
{"compound": "O=C1NC(=O)C(c2c[nH]c3ccccc23)=C1c1c[nH]c2ccccc12", "target": "FGFR3 (human)", "residual activity / %": 70.7}
{"compound": "O=C1NC(=O)/C(=C\\c2ccc3nccnc3c2)S1", "target": "FGFR3 (human)", "residual activity / %": 97.3}
{"compound": "CC(C)[C@H](CO)Nc1nc(Nc2cc(N)cc(Cl)c2)c2ncn(C(C)C)c2n1", "target": "FGFR3 (human)", "residual activity / %": 79.4}
{"compound": "COc1ccc(OC)c2c(=S)c3ccccc3[nH]c12", "target": "FGFR3 (human)", "residual activity / %": 94.9}
{"compound": "O=C(Nc1cccc(Nc2cc(Nc3cccc(C(F)(F)F)c3)ncn2)c1)C1CC1", "target": "FGFR3 (human)", "residual activity / %": 102}
{"compound": "CN([C@@H](Cc1ccc(OS(=O)(=O)c2cccc3cnccc23)cc1)C(=O)N1CCN(c2ccccc2)CC1)S(=O)(=O)c1cccc2cnccc12", "target": "FGFR3 (human)", "residual activity / %": 98.8}
{"compound": "Nc1nccc(-c2c(-c3ccc(F)cc3)ncn2C2CCNCC2)n1", "target": "FGFR3 (human)", "residual activity / %": 100}
{"compound": "CC(C)c1nn(-c2c(Cl)cccc2Cl)c2nc(Cc3ccc(OCCO)cc3)nc(O)c12", "target": "FGFR3 (human)", "residual activity / %": 97}
{"compound": "Nc1nnc2[nH]c3ccccc3nc1-2", "target": "FGFR3 (human)", "residual activity / %": 96.5}
{"compound": "CC(=O)O/N=C1\\C(=C2\\C(=O)Nc3cc(Br)ccc32)Nc2ccccc21", "target": "FGFR3 (human)", "residual activity / %": 46.5}
{"compound": "Cn1nc2c3c(cccc31)C(=O)c1ccccc1-2", "target": "FGFR3 (human)", "residual activity / %": 95.9}
{"compound": "O=C(O)/C=C/c1cc(Br)c(Br)c(Br)c1Br", "target": "FGFR3 (human)", "residual activity / %": 94.9}
{"compound": "O=C1Nc2ccccc2/C1=C1/Nc2ccccc2/C1=N\\OCCC(O)CO (configuration not stated)", "target": "FGFR3 (human)", "residual activity / %": 45.8}
{"compound": "CCn1cnc2c(Nc3cccc(Cl)c3)nc(N[C@@H]3CCCC[C@@H]3N)nc21", "target": "FGFR3 (human)", "residual activity / %": 90.4}
{"compound": "Oc1ccc(Nc2nc(-c3ccc(Cl)cc3)cs2)cc1", "target": "FGFR3 (human)", "residual activity / %": 96.5}
{"compound": "O=C1NC(=O)C(c2cn(CCCO)c3ncccc23)=C1c1cnccn1", "target": "FGFR3 (human)", "residual activity / %": 78.7}
{"compound": "COc1cc2ncc(-c3ccccc3)nc2cc1OC", "target": "FGFR3 (human)", "residual activity / %": 96}
{"compound": "Cn1sc(=O)n(Cc2ccccc2)c1=O", "target": "FGFR3 (human)", "residual activity / %": 100}
{"compound": "O=C1Cc2c([nH]c3ccc(Br)cc23)-c2ccccc2N1", "target": "FGFR3 (human)", "residual activity / %": 101}
{"compound": "O=C(CCCc1ccc(-c2ccccc2F)cc1)Nc1ccc(O)cc1", "target": "FGFR3 (human)", "residual activity / %": 103}
{"compound": "O=C1Nc2ccccc2/C1=C1\\Nc2ccccc2\\C1=N/O", "target": "FGFR3 (human)", "residual activity / %": 70.4}

###

- target: UniProtKB Q09013
- Sequence (Q09013 whole entry, looked up): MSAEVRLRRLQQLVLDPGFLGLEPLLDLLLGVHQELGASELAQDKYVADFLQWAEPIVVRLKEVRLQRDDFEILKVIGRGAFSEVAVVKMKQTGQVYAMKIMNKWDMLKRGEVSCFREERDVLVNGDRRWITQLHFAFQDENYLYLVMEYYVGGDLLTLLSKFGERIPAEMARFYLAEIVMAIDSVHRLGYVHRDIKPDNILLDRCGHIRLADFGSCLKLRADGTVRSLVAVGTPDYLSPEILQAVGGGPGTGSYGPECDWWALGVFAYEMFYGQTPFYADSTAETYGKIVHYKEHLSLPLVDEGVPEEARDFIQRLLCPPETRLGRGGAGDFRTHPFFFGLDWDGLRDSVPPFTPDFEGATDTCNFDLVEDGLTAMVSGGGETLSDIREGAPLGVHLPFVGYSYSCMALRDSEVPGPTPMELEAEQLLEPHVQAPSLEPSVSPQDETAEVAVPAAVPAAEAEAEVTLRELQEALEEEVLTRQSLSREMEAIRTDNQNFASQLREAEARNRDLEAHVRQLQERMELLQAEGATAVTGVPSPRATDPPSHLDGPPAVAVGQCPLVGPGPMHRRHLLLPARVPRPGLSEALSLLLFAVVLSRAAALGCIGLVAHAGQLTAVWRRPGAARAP
- experiment-notes: radiometric filter-binding kinase assay, Kinase HotSpot
- condition: compound 0.5 µM; ATP 10 µM

{"smiles-entry": "COc1cc2ncnc(N3CCN(C(=O)Nc4ccc(Oc5ccccc5)cc4)CC3)c2cc1OC", "residual activity": "95.6%"}
{"smiles-entry": "Cn1cnc2cc3c(Nc4cccc(Br)c4)ncnc3cc21", "residual activity": "98.4%"}
{"smiles-entry": "CCN(CC)CCCCN1c2ccccc2Oc2ccc(Cl)cc21", "residual activity": "99.2%"}
{"smiles-entry": "O=C1NC(=O)C(c2c[nH]c3ccccc23)=C1c1c[nH]c2ccccc12", "residual activity": "97.3%"}

###

- target: UniProt Q9NYL2
- Sequence (Q9NYL2 whole entry, looked up): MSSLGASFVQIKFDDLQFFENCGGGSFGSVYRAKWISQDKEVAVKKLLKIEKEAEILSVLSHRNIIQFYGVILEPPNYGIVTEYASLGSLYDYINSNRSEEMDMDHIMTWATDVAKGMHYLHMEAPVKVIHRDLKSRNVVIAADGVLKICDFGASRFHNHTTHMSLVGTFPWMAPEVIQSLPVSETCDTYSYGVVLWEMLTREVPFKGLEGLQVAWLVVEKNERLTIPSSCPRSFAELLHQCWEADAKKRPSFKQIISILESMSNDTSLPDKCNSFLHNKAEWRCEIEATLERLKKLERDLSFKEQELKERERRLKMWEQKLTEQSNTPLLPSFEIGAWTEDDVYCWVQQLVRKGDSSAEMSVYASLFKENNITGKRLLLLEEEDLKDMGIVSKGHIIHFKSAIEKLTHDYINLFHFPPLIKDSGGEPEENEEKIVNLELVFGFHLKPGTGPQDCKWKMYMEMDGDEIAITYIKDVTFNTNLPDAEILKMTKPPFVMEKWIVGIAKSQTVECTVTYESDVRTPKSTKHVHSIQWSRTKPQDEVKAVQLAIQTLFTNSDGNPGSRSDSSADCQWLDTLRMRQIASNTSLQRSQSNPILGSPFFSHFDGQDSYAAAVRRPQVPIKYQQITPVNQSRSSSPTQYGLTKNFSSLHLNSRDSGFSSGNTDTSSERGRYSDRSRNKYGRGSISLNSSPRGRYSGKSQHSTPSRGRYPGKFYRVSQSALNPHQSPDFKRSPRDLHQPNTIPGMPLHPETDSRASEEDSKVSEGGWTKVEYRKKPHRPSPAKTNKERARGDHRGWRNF
- experiment-notes: radiometric filter-binding kinase assay, Kinase HotSpot
- condition: compound 0.5 µM; ATP 10 µM

{"molecule": "COc1ccc(OC)c2c(=S)c3ccccc3[nH]c12", "residual activity": "94%"}
{"molecule": "Nc1nccc(-c2c(-c3ccc(F)cc3)ncn2C2CCNCC2)n1", "residual activity": "98%"}
{"molecule": "CC(=O)O/N=C1\\C(=C2\\C(=O)Nc3cc(Br)ccc32)Nc2ccccc21", "residual activity": "77%"}
{"molecule": "CCn1cnc2c(Nc3cccc(Cl)c3)nc(N[C@@H]3CCCC[C@@H]3N)nc21", "residual activity": "104%"}
{"molecule": "O=C1NC(=O)C(c2cn(CCCO)c3ncccc23)=C1c1cnccn1", "residual activity": "96.4%"}
{"molecule": "CN([C@@H](Cc1ccc(OS(=O)(=O)c2cccc3cnccc23)cc1)C(=O)N1CCN(c2ccccc2)CC1)S(=O)(=O)c1cccc2cnccc12", "residual activity": "103%"}
{"molecule": "O=C1Nc2ccccc2/C1=C1/Nc2ccccc2/C1=N\\OCCC(O)CO (stereo not given)", "residual activity": "76.4%"}
{"molecule": "Cn1cnc2cc3c(Nc4cccc(Br)c4)ncnc3cc21", "residual activity": "93.3%"}
{"molecule": "COc1ccc(CNC(=O)Nc2ncc([N+](=O)[O-])s2)cc1", "residual activity": "101%"}
{"molecule": "Cc1nc2cc3nc(-c4cccs4)cnc3cc2n1C", "residual activity": "89.1%"}

###

- target: EPHA2 (human) (UniProt P29317)
- Sequence (P29317 whole entry, looked up): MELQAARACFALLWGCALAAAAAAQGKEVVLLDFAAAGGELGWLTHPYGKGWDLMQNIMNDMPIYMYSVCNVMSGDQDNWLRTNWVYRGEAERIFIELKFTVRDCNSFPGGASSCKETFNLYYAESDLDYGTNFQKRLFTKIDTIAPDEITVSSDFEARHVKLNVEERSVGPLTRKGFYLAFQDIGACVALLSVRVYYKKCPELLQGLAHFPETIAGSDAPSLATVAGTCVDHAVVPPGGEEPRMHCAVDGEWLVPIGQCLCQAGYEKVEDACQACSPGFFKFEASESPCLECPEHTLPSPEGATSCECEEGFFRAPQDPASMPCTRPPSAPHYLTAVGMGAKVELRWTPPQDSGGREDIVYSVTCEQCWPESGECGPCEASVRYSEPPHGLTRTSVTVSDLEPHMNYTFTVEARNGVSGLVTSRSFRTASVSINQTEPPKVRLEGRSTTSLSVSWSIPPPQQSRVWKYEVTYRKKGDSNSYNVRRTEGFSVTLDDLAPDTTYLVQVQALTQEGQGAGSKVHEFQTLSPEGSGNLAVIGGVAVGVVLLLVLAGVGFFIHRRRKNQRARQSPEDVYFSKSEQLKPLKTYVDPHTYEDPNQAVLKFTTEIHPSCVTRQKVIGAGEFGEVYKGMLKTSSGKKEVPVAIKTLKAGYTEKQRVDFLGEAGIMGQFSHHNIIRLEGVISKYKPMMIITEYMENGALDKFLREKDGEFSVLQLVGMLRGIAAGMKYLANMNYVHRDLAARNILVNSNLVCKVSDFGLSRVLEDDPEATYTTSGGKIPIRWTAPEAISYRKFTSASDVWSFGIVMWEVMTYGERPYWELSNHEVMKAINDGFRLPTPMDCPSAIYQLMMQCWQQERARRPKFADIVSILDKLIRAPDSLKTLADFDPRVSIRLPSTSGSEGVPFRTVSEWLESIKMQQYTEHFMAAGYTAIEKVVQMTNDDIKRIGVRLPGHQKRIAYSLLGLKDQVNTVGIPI
- experiment-notes: radiometric filter-binding kinase assay, Kinase HotSpot
- condition: compound 0.5 µM; ATP 10 µM

{"smiles-entry": "Cn1cnc2cc3c(Nc4cccc(Br)c4)ncnc3cc21", "target": "EPHA2 (human) (UniProt P29317)", "residual activity (%)": 81.8}
{"smiles-entry": "Cc1nc2cc3nc(-c4cccs4)cnc3cc2n1C", "target": "EPHA2 (human) (UniProt P29317)", "residual activity (%)": 107}
{"smiles-entry": "CN([C@@H](Cc1ccc(OS(=O)(=O)c2cccc3cnccc23)cc1)C(=O)N1CCN(c2ccccc2)CC1)S(=O)(=O)c1cccc2cnccc12", "target": "EPHA2 (human) (UniProt P29317)", "residual activity (%)": 101}
{"smiles-entry": "Nc1nccc(-c2c(-c3ccc(F)cc3)ncn2C2CCNCC2)n1", "target": "EPHA2 (human) (UniProt P29317)", "residual activity (%)": 102}
{"smiles-entry": "O=C(Nc1cccc(Nc2cc(Nc3cccc(C(F)(F)F)c3)ncn2)c1)C1CC1", "target": "EPHA2 (human) (UniProt P29317)", "residual activity (%)": 104}
{"smiles-entry": "O=C(O)/C=C/c1cc(Br)c(Br)c(Br)c1Br", "target": "EPHA2 (human) (UniProt P29317)", "residual activity (%)": 97.9}
{"smiles-entry": "CCN(CC)CCCCN1c2ccccc2Oc2ccc(Cl)cc21", "target": "EPHA2 (human) (UniProt P29317)", "residual activity (%)": 106}
{"smiles-entry": "CC(C)c1nn(-c2c(Cl)cccc2Cl)c2nc(Cc3ccc(OCCO)cc3)nc(O)c12", "target": "EPHA2 (human) (UniProt P29317)", "residual activity (%)": 100}
{"smiles-entry": "O=C1Cc2c([nH]c3ccc(Br)cc23)-c2ccccc2N1", "target": "EPHA2 (human) (UniProt P29317)", "residual activity (%)": 98.3}
{"smiles-entry": "COc1ccc(CNC(=O)Nc2ncc([N+](=O)[O-])s2)cc1", "target": "EPHA2 (human) (UniProt P29317)", "residual activity (%)": 100}
{"smiles-entry": "O=C(CCCc1ccc(-c2ccccc2F)cc1)Nc1ccc(O)cc1", "target": "EPHA2 (human) (UniProt P29317)", "residual activity (%)": 101}
{"smiles-entry": "O=C1NC(=O)/C(=C\\c2ccc3nccnc3c2)S1", "target": "EPHA2 (human) (UniProt P29317)", "residual activity (%)": 99.9}
{"smiles-entry": "COc1cc2ncnc(N3CCN(C(=O)Nc4ccc(Oc5ccccc5)cc4)CC3)c2cc1OC", "target": "EPHA2 (human) (UniProt P29317)", "residual activity (%)": 95.7}
{"smiles-entry": "Oc1ccc(Nc2nc(-c3ccc(Cl)cc3)cs2)cc1", "target": "EPHA2 (human) (UniProt P29317)", "residual activity (%)": 105}
{"smiles-entry": "CC(=O)O/N=C1\\C(=C2\\C(=O)Nc3cc(Br)ccc32)Nc2ccccc21", "target": "EPHA2 (human) (UniProt P29317)", "residual activity (%)": 95.8}
{"smiles-entry": "CCn1cnc2c(Nc3cccc(Cl)c3)nc(N[C@@H]3CCCC[C@@H]3N)nc21", "target": "EPHA2 (human) (UniProt P29317)", "residual activity (%)": 86.7}
